For each entry below, report its TGI value.
# System: HOP-62 NSCLC
# run_description: NCI tumour cell line growth inhibition, 48 h

Tell me measured TGI for O=C1NC(=S)NC(=O)C1=CC1CC1 please.
> 100 µM

Give TGI for CC12C3CC4C5CC(C(C53)[C@@H]1NCc1ccccc1)C42 (some centres not stated)
> 100 µM

// fetch TGI given entry O=C1OC(c2ccc(Cl)cc2)=N/C1=C\c1ccccc1
> 100 µM

Fill in TGI for record N#Cc1ccc(OCCSCCCCCCCCCCSCCOc2ccc(C#N)cc2)cc1
> 100 µM

For the compound CC[C@]1(Cc2ccc(OC)c(OC)c2)C2CC(C(=O)OC)ON2O[C@H](OCc2ccccc2)[C@@H]1OC(C)=O (some centres not stated) , report TGI.
> 100 µM

Provide one value: measured TGI of O=C(O)c1ccccc1/C=C1/Cc2ccc3c(c2C1=O)CCC3
> 100 µM

Entry CCCCc1n(Cc2ccc3ccccc3n2)cc[n+]1Cc1ccc2ccccc2n1 needs its TGI filled in; supply it.
11.1 µM

// Input: O=C(Nc1n[nH]c2nc(-c3ccc(O)cc3)c(Br)cc12)C1CC1 . Output its TGI only.
14 µM

State its TGI: COc1cc2c(cc1O)c(=O)n(CCN(C)C)c1c3cc4c(cc3ncc21)OCO4
0.044 µM

Item C=CCc1cccc2cc(C(=O)Nc3ccc(C)cc3)c(=N)oc12 : provide TGI
> 100 µM

Determine from records and report TGI for CCCS(=O)(=O)Nc1cccc(Nc2ncnc3cc(NC(=O)CCl)ccc23)c1Cl
7.12 µM

Please indicate TGI recorded for C#CCOC(=O)/C=C/C(=O)Oc1ccc2c(C)cc(=O)oc2c1
> 100 µM

Query TGI for CCc1cccc(C(C)CC)c1NC(=O)C(=O)Cc1nc2ccccc2o1 (configuration not stated)
> 50 µM

Check the records and state TGI for COc1ccc(C(=O)CCN(C)C)c2ccccc12
> 78.3 µM

Return the recorded TGI value; entry: Oc1ccc(C2Oc3cc(O)cc4c3C2c2cc(O)cc3c2C(c2cc(O)cc5c2C4C(c2ccc(O)cc2)O5)C(c2ccc(O)cc2)O3)cc1 (configuration not stated)
> 25 µM

Consider the compound COC(=O)C1=C(C(=O)ON)[C@@H]2C=C[C@@]1([C@@H](Cc1ccccc1)Nc1ccccc1)O2 and give its recorded TGI.
32.4 µM

Using known records, supply TGI for Cc1cccc2c(NCCN(C)C)c3cccc(C(=O)NCCN(C)C)c3nc12
3.93 µM

###

# Test system: NCI-H226 lung
# run_description: NCI tumour cell line growth inhibition, 48 h
value_type: GI50

Name the recorded GI50 of the compound listed here: O=[N+]([O-])c1ccc(N=Nc2c(Cl)cc(O)cc2Cl)cc1
2830 nM

Output GI50 of CCn1c(SCC(=O)Nc2cc(C(F)(F)F)ccc2Cl)nc2ccccc2c1=O
29900 nM

Kindly indicate its recorded GI50. Item: CCN(CCO)CCCC(C)Nc1ccnc2cc(Cl)ccc12 (stereo unspecified)
> 100000 nM

Complete the entry with GI50 for COc1cc2c(/C=C3/C(=O)Nc4ccc(O)cc43)c(Cl)n(Cc3cc(OC)c(OC)c(OC)c3)c2cc1C
2880 nM

Return GI50 (reported value) for this compound: O=C(c1ccc2ccccc2c1)c1c(C(F)(F)F)n([O-])c2cc(C(F)(F)F)ccc2[n+]1=O
1490 nM

Return the recorded GI50 value; entry: O=C(CCCC(=O)N/N=C/c1cc(Cl)ccc1O)N/N=C\c1cc(Cl)ccc1O
6640 nM

###

# Test system: UO-31 renal
# run_description: NCI tumour cell line growth inhibition, 48 h
Could you please report measured TGI for the items listed next?

Identify measured TGI associated with FC(F)(F)c1nc(SCc2ccc(Cl)cc2)n[nH]1
> 100 µM

Return reported TGI. Input molecule: C=CCCCN1CCCCC1=S
> 100 µM

Kindly indicate its recorded TGI. Item: O=C1CCCCCCCCCCC1CN1CCOCC1 (stereo unspecified)
> 100 µM

Query TGI for CC(=O)OC12CC[N+]3(C)CCCCC3C1=Nc1ccccc12 (stereo unspecified)
> 100 µM

Retrieve TGI measured for O=C(Nc1n[nH]c2nc(-c3ccc(O)cc3)c(Br)cc12)C1CC1 and print it.
15.3 µM

Let me know recorded TGI for O=C1/C(=C/c2ccc(F)cc2)CN(C(=O)C(Cl)Cl)C/C1=C\c1ccc(F)cc1 , thanks.
0.327 µM

Fill in reported TGI for this entry: COCN1C(=N)C(C(=O)OC(C)(C)C)=C2C=C(O)C=CC21C (stereo unspecified)
26.4 µM

Please report the measured TGI for COC(=O)[C@@H]1C[C@]2(Br)c3ccccc3N(S(=O)(=O)c3ccccc3)[C@@H]2N1C(=O)OC
> 100 µM

Give the value of TGI reported for the following: CC(=O)OCCCCN1C(=O)CSc2ccccc21
> 100 µM

Tell me its TGI given Cc1cc(C#N)c(Nc2ccc(F)cc2[N+](=O)[O-])s1 as the entry.
> 100 µM

Tell me its TGI given CN(C)c1ccc(C2CC(=O)CC(c3ccc(N(C)C)cc3)C23C(=O)NC(=S)NC3=O)cc1 (stereo unspecified) as the entry.
> 100 µM

Name the recorded TGI of the molecule listed here: CC1SC2=NC3=C(c4ccccc4C3=O)C(c3ccccc3Cl)N2C1=O (stereo unspecified)
> 100 µM

Specify reported TGI for the molecule shown: C/C(CC(C)(C)N1CC1)=N\NC(=O)Nc1cccc2ccccc12
12.2 µM

Input O=C(Nc1ccccc1Cl)c1ccc(NC2=C(Cl)C(=O)N(C3CCCCC3)C2=O)cc1 , output reported TGI.
42.3 µM

Hello, please tell me recorded TGI for this one: CCn1c(SCC(=O)Nc2cc(C(F)(F)F)ccc2Cl)nc2ccccc2c1=O
> 100 µM

Fill in TGI for record CC12C3CC4C5CC(C(C53)[C@@H]1NCc1ccccc1)C42 (stereo partly specified)
> 100 µM

Quote TGI reported for S=C1SCN(Cc2ccccc2)CN1Cc1ccccc1 please.
19 µM

# return recorded TGI for input CCN1C(=O)N(CC)C2C1NN=c1s/c(=C\c3ccc(C(F)(F)F)cc3)c(=O)n12 (stereo unspecified)
> 42.9 µM

Hello, please tell me recorded TGI for this one: N#CC1(N2CCCC2)CCC2(CC1)OCCO2
> 100 µM

For the molecule Brc1ccc(C=NC23CC4CC(CC(C4)C2)C3)cc1 , give its reported TGI.
> 100 µM

Hello, please tell me recorded TGI for this one: O=C1NC2(CCCC2)C2CCCCC12O (stereo unspecified)
> 100 µM

###

Kindly state TGI for each of the entries shown.
# Tested on: MOLT-4 leukemia
# run_description: NCI tumour cell line growth inhibition, 48 h
Peptide text beside a SMILES is read from it. * marks the point of attachment. X34 = O=C(c1ccc(-c2ccc(Cl)cc2Cl)o1)*

Quick one: give measured TGI for CCOC(=O)[C@@H](NC(=O)OC(C)(C)C)[C@@H](O)C(=O)OCC
> 100 µM

Consider the molecule CCOC(=O)C(NC(=O)c1cccc(Cl)c1)(Nc1ccc(S(=O)(=O)Nc2cc(C)nc(C)n2)cc1)C(F)(F)F (centres undefined) and give its recorded TGI.
> 100 µM

Give the value of TGI reported for the following: Cc1oc2nc(N(C)C)nc(NN)c2c1C
> 100 µM

Hello, please tell me recorded TGI for this one: CC[C@]12C=CCN3CC[C@@]4(c5ccc(OC)cc5N(C)[C@H]4[C@@](O)(C(=O)OC)[C@@H]1OC(=O)CCC(=O)O[C@H]1CC[C@H]4[C@@H]5CC[C@H]6CC(=O)CC[C@]6(C)[C@H]5CC[C@]14C)[C@@H]32
> 100 µM

Find the measured TGI of CC(ON1[C@](C)(c2ccccc2)CC[C@@]1(C)c1ccccc1)c1ccccc1 (some centres undefined) and report it.
46.1 µM

Item O=c1[nH]nc(CNc2ccc(Cl)cc2Cl)c2ccccc12 : provide TGI
> 100 µM

State its TGI for this molecule: COC(=O)C(CC(C)C)NC(=O)C(Cc1ccccc1)NC(=O)C1CCCN1C(=O)C(CO)NC(=O)c1ccc(-c2ccc(Cl)cc2Cl)o1 (centres undefined) (X34-SPFL-OMe; configuration not given here)
80 µM

Determine its reported TGI: C1=CC=C2NCCc3cccc(c3)CCNC3=CC=CC=CC3=NCCCCCCN=C2C=C1
38.3 µM

Look up and report measured TGI for this entry: N#Cc1sc2c(c1OC(=O)c1ccc(Cl)cc1Cl)c(=O)n(-c1ccccc1)c(=S)n2-c1ccccc1
45.9 µM

Provide measured TGI value, entry: N#CC(C(=O)CCC(=O)Nc1cccc(C(F)(F)F)c1)c1ccccc1 (centres undefined)
> 100 µM

Query TGI for CCOC(=O)CNC(=O)OCc1ccccc1
> 100 µM

Given the molecule CCOC(=O)C(NC(=O)c1ccccc1)(c1ccc(S(=O)(=O)Nc2onc(C)c2C)cc1)C(F)(F)F (centres undefined) , write its reported TGI.
> 100 µM

Give the measured TGI for OCCN(CCO)c1nc(N2CCCCC2)c2nc(N(CCO)CCO)nc(N3CCCCC3)c2n1
56.5 µM

Give recorded TGI. COc1ccc(/C=C2/SC(=Nc3ccccc3)N(NC(=O)Cc3ccccc3)C2=O)c(OC)c1
> 100 µM
